Readings of cell viability for the listed molecules
# Tested on: P12-Ichikawa
# Test: cell viability relative to DMSO control; higher = less cytotoxic
# Assay Setup: RPMI 5 mM glucose + 10% dialyzed FBS; 48 h; 0.569 µM
Reported Endpoint: cell viability (%)

[[record]]
molecule = "CC(=O)O[C@H]1C(=O)[C@]2(C)[C@@H](O)C[C@H]3OC[C@@]3(OC(C)=O)C2[C@H](OC(=O)C4=CC=CC=C4)[C@]5(O)C[C@H](OC(=O)[C@H](O)[C@@H](NC(=O)C6=CC=CC=C6)C7=CC=CC=C7)\\C(=C1/C5(C)C)C (stereo partly drawn)"
unit_text = "%"
value_measured = 35.9

[[record]]
molecule = "Cc1cc(OCCCc2c(C(=O)O)n(Cc3cccnc3)c3c(-c4c(COc5ccc(N6CCN([S+](C)(=O)[O-])CC6)cc5)nn(C)c4C)cccc23)cc(C)c1Cl"
unit_text = "%"
value_measured = 90.9

[[record]]
molecule = "OC1=CC=C(C=C1)\\C2=C\\OC3=C(C=CC(=C3)O)C2=O"
unit_text = "%"
value_measured = 95.8

[[record]]
molecule = "C[C@]12C[C@H](O)[C@H]3[C@@H](CC\\C4=C\\C(=O)\\C=C/[C@]34C)[C@@H]1CC[C@]2(O)C(=O)CO"
unit_text = "%"
value_measured = 88.2

[[record]]
molecule = "CCC(C)SSc1ncc[nH]1 (stereo not drawn)"
unit_text = "%"
value_measured = 89.9

[[record]]
molecule = "OC1=C(O)C2=C(\\C=C/C(=O)O2)C=C1"
unit_text = "%"
value_measured = 98

[[record]]
molecule = "C[C@H](NC(=O)/C(C#N)=C/c1cccc(Br)n1)c1ccccc1"
unit_text = "%"
value_measured = 121

[[record]]
molecule = "CC(=O)O.Cc1c(-c2ccc(O)cc2)n(Cc2ccc(OCCN3CCCCCC3)cc2)c2ccc(O)cc12"
unit_text = "%"
value_measured = 98.3

